Inhibition values for the compounds below.
# Test system: HepG2
# procedure-summary: GSK_TCMDC: Percent inhibition of human HepG2 cell line. Test compounds present at 10uM.
# Assay type: functional
Your answer is read as %, so omit the unit and give the number.

{"compound": "Cc1cc(O)cc2c(C3CCN(CC4CCN(C(=O)/C=C/c5ccc(Cl)c(Cl)c5)CC4)CC3)c[nH]c12", "readout": "Inhibition", "measure-unit": "%", "recorded-value": 33}
{"compound": "COC(=O)c1ccc(CC(C)NCC(O)c2cccc(Oc3cccc(C(F)(F)F)c3)c2)cc1.Cl (stereo not given)", "readout": "Inhibition", "measure-unit": "%", "recorded-value": 19}
{"compound": "COC(=O)c1ccc(CC(C)NCC(O)c2cccc(C(F)(F)F)c2)cc1.Cl (stereo not given)", "readout": "Inhibition", "measure-unit": "%", "recorded-value": 0}
{"compound": "C/C=C1/CN2CC[C@H]1C[C@H]2[C@H](O)c1ccnc2ccc(O)cc12", "readout": "Inhibition", "measure-unit": "%", "recorded-value": 0}

Continue with the next compound.
Quick one: Inhibition of CC(Cc1ccc(OCCOc2ccccc2)cc1)NCC(O)c1cccc(Cl)c1 (stereo not given) ?
12

====

# System: Plasmodium falciparum
# procedure-summary: GSK_TCMDC: Inhibition of Plasmodium falciparum Dd2 in whole red blood cells, using parasite LDH activity as an index of growth. Test compounds present at 2uM
# Format: functional
Could you mark each record y if its Inhibition falls strictly under 80%, and n if it equals or exceeds it?

{"compound": "CN(C)c1cccc(CCNCCc2c[nH]c3ccc(Cl)cc23)c1.O=C(O)C(=O)O", "label-class": "y"}
{"compound": "O=C(/C=C/c1ccc(Cl)c(Cl)c1)N1CCC(CN2CCC(c3c[nH]c4ccc(O)cc34)CC2)CC1", "label-class": "n"}
{"compound": "CC(Cc1ccc(NC(=O)CCNCc2ccccc2)cc1)NCCc1cccc(Cl)c1 (centres undefined)", "label-class": "n"}
{"compound": "CCCCCCC(C)c1cc(O)c2c(c1)OC(C)(C)c1ccncc1-2.Cl (centres undefined)", "label-class": "y"}
{"compound": "CC[C@H]1CN2CC[C@H]1C[C@H]2[C@H](O)c1cc(N2CCC3CCCCC3C2)nc2ccc(OC)cc12 (some centres undefined)", "label-class": "n"}
{"compound": "CC[C@H]1CN2CC[C@@H]1C[C@H]2[C@H](O)c1cc(N2CCC(N3CCCCC3)CC2)nc2ccc(OC)cc12", "label-class": "y"}

Criterion: Inhibition strictly below 80%. Is it met by CCCCC/C=C/C(=O)NC1CCC(CN2CCC(c3c[nH]c4ccccc34)CC2)CC1 (centres undefined) ?
y

Criterion: Inhibition strictly below 80%. Is it met by `Oc1ccc(Cl)cc1CN1CCC(CCOC(c2ccccc2)c2ccccc2)CC1` ?
n

Criterion: Inhibition strictly below 80%. Is it met by O=C(/C=C/c1ccsc1)NC1CCC(CN2CCC(c3c[nH]c4ccccc34)CC2)CC1 (centres undefined) ?
y

====

# Tested on: Plasmodium falciparum
# procedure-summary: GSK_TCMDC: Inhibition of Plasmodium falciparum 3D7 in whole red blood cells, using parasite LDH activity as an index of growth. Test compounds present at 2uM
# Assay type: functional
Inhibition values for the molecules below.
Your answer is read as %, so omit the unit and give the number.

{"molecule": "CC[C@H]1CN2CC[C@@H]1C[C@H]2[C@H](O)c1cc(N2CCOCC2)nc2ccc(OC)cc12", "Inhibition [%]": 99}
{"molecule": "CSc1nccc(-c2ccc(S(=O)(=O)NC3CCC(CN4CCC(c5c[nH]c6ccccc56)CC4)CC3)s2)n1 (centres undefined)", "Inhibition [%]": 100}
{"molecule": "COc1ccc(C=CC(=O)NC2CCC(CN3CCC(c4c[nH]c5ccccc45)CC3)CC2)cc1 (centres undefined)", "Inhibition [%]": 100}
{"molecule": "O=C(C=Cc1ccccc1C(F)(F)F)NC1CCC(CN2CCC(c3c[nH]c4ccccc34)CC2)CC1 (centres undefined)", "Inhibition [%]": 100}
{"molecule": "COc1cc(NC(=O)c2nn(CCCN3CCC4(CC3)C(=O)NCN4c3ccccc3)cc2-c2ccc(Cl)c(Cl)c2)cc(OC)c1OC", "Inhibition [%]": 97}
{"molecule": "COc1ccc(CC(C)NCC(O)c2ccc(Cl)c(Cl)c2)cc1 (centres undefined)", "Inhibition [%]": 98}

Quick one: Inhibition of `Cl.O=C(CNC1CCCCC1)c1ccc(O)c(O)c1` ?
100

Quick one: Inhibition of Cc1[nH]c2ccccc2c1C1=CCN(CC2CC2C(=O)c2ccccc2)CC1 (centres undefined) ?
95

Quick one: Inhibition of `CN1CCN(c2ccc3[nH]c(-c4ccc5[nH]c(-c6ccc(O)cc6)nc5c4)nc3c2)CC1.Cl.O` ?
99
